Measured values drawn from patent US20250161419A1 for this set.

- Test system: NFκB
- Test: NFκB reporter assay stimulated with LPS (THP1-XBlue-MD2-GD14 reporter cells, SEAP read-out)
- Format: cell-based
- Run parameters: peptide 50 μg/ml before LPS 5 ng/ml, overnight
Assay endpoint: NFκB activity (NFκB inducible SEAP in supernatant)

Substance	Result
R R R V R F N R P F L M I I R R R (RRRVRFNRPFLMIIRRR) [SP29]	heightened activity
LRFNRPFLVVI [SP24]	lack of function
R R R L R F N R P F L V V I R R R (RRRLRFNRPFLVVIRRR) [SP26]	heightened activity
VRFNRPFLMII [SP28]	lack of function
